# Tested On: Histone acetyltransferase p300 (Homo sapiens)
# Test Details: Binding affinity to His6-tagged immobilized human KAT3B catalytic domain expressed in Sf9 cells by surface plasmon resonance assay
The source made the active and inactive calls. The rule behind the calls is not given here.
Outcome codes: active, inactive

1. CCCCCCCCCCCC=C(C(=O)OCC)C(=O)OCC : inactive
2. CCCCCCCCCCCCCCC=C(C(C)=O)C(C)=O : inactive
3. CCCCCCCCCCCCCC=C(C(=O)OCC)C(=O)OCC : active
4. CCCCCCCCCCC=C(C(=O)OCC)C(=O)OCC : inactive

The values you see were collected from ChEMBL document CHEMBL1795294.
